Biological target: CIN85 SH3A domain (Homo sapiens, UniProt Q96B97)
Construct: GST (with thrombin cleavage site) (N); made in house; host or cells: Escherichia coli BL21(DE3)
Sequence (Q96B97 1-58 limits assumed): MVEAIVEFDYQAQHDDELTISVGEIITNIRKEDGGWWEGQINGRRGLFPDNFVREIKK
Assay: NMR titration (chemical shift perturbations) of 15N-labeled SH3A domain with synthetic CIN85-PRM1 peptide
Format: binding
Conditions: isolated SH3A domain, CSP of 15N-labeled domain, error of fitted KD from bootstrap resampling, read-out: KD (mM), binary SH3:peptide interaction
readout-label: Kd (mM)
Answer in mM, number only, no unit symbol.

Input: Given the entry Ac-FKDKPIKLRPRSIE-NH2 [^219FKDKPIKLRPRSIE^232] , report its measured Kd.
Output: 0.73
